- target.entity: caspase-6 (Homo sapiens, UniProt P55212)
- Sequence (P55212 24-179 limits assumed): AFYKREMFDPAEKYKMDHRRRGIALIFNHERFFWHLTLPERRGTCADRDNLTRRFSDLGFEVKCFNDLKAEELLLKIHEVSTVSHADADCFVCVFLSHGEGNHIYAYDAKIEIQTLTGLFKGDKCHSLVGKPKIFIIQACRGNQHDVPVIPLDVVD
- Sequence (P55212 194-293 limits assumed): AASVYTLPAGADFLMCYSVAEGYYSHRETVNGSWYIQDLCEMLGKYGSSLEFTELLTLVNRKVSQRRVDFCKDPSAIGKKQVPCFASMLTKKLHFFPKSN
endpoint: IC50

Completed entries (count: 3):
INSERT INTO assay_data (compound, reported_value) VALUES
  ('CC(=O)c1c(O)c(C)c(O)c(Cc2c(O)c3c(c(C(=O)/C=C/c4ccccc4)c2O)OC(C)(C)C=C3)c1O', '5 to 45 µM'),
  ('CN1CCN(CCCN2c3ccccc3Sc3ccc(C(F)(F)F)cc32)CC1', '> 250 µM'),
  ('OCCN1CCN(CCC=C2c3ccccc3Sc3ccc(C(F)(F)F)cc32)CC1', '> 250 µM');

Batch request: IC50 for each of the following compounds.
1. O=c1[nH]c2ccccc2n1C1CCN(CCCC(c2ccc(F)cc2)c2ccc(F)cc2)CC1 [Pimozide, pimozide]
2. CC(C)(Sc1ccc(CCN(CCCCC2CCCCC2)C(=O)NC2CCCCC2)cc1)C(=O)O

Result ::
1. > 250 µM
2. 21 µM

Origin of the recorded values: paper PMC3344384
